assay: Inhibition of post acid activity of rabbit reticulocyte 20S proteasome; design: species or system Oryctolagus cuniculus
Residues, ends and D or L forms follow the SMILES beside them. *: point of attachment. Cbz = O=C(OCc1ccccc1)*; Boc = CC(C)(C)OC(=O)*; NHBn = c1ccc(CN*)cc1; NHPh = c1ccc(N*)cc1; Bn = c1ccc(C*)cc1
The entries below are paired with their reported Ki.
property_name: Ki

CC(C)(C)OC(=O)N[C@@H](Cc1ccc(OCc2ccccc2)cc1)C(=O)N[C@@H](CCCN(C(=N)NC(=O)OCc1ccccc1)C(=O)OCc1ccccc1)C(=O)N[C@@H](Cc1c[nH]c2ccccc12)C(=O)NCc1ccccc1 :: > 100 µM
COC(=O)[C@@H]1Cc2c[nH]c3c(cccc23)-c2ccc(cc2OC)C[C@H](NC(=O)OC(C)(C)C)C(=O)N[C@@H](CC(C)C)C(=O)N1 :: > 100 µM
CC(C)C[C@@H](C=O)NC(=O)[C@H](CC(C)C)NC(=O)[C@H](CC(C)C)NC(=O)OCc1ccccc1 [MG-132] (Cbz-Leu-Leu-Leu-aldehyde) :: 0.67 µM
CC(C)(C)OC(=O)N[C@@H](Cc1ccc(OCc2ccccc2)cc1)C(=O)N[C@@H](CC(N)=O)C(=O)N[C@@H](Cc1c[nH]c2ccccc12)C(=O)Nc1ccccc1 (Boc-Tyr(Bn)-Asn-Trp-NHPh) :: > 100 µM
COC(=O)[C@H](Cc1c[nH]c2c(Br)cccc12)NC(=O)[C@H](C)NC(=O)[C@H](Cc1ccc(OC)c(I)c1)NC(=O)OC(C)(C)C :: 74 µM
COC(=O)[C@H](Cc1c[nH]c2c(Br)cccc12)NC(=O)[C@H](CC(C)C)NC(=O)[C@H](Cc1ccc(OCc2ccccc2)c(I)c1)NC(=O)OC(C)(C)C :: > 100 µM
CC(C)(C)OC(=O)NCCCC[C@H](NC(=O)[C@H](Cc1ccc(OCc2ccccc2)cc1)NC(=O)OC(C)(C)C)C(=O)N[C@@H](Cc1c[nH]c2ccccc12)C(=O)Nc1ccc(O)cc1 :: > 100 µM
CC(C)(C)OC(=O)N[C@@H](Cc1ccc(OCc2ccccc2)cc1)C(=O)N[C@@H](CC(N)=O)C(=O)N[C@@H](Cc1c[nH]c2ccccc12)C(=O)Nc1ccc(O)cc1 :: 23.4 µM
NCCCC[C@H](NC(=O)[C@@H](N)Cc1ccc(OCc2ccccc2)cc1)C(=O)N[C@@H](Cc1c[nH]c2ccccc12)C(=O)Nc1ccc(O)cc1 :: > 100 µM
CCOC(=O)[C@H](Cc1c[nH]c2c(Br)cccc12)NC(=O)[C@H](CC(C)C)NC(=O)[C@H](Cc1ccc(OC)c(I)c1)NC(=O)OC(C)(C)C :: > 100 µM
C[C@H](NC(=O)[C@@H](N)Cc1ccc(OCc2ccccc2)cc1)C(=O)N[C@@H](Cc1c[nH]c2ccccc12)C(=O)NCc1ccccc1 (H-Tyr(Bn)-Ala-Trp-NHBn) :: > 100 µM
CC(C)C[C@H](NC(=O)[C@@H](N)Cc1ccc(OCc2ccccc2)cc1)C(=O)N[C@@H](Cc1c[nH]c2ccccc12)C(=O)NCCCCN :: 22.5 µM
CNC(=O)[C@@H](Cc1c[nH]c2c(-c3ccc(C[C@H](NC(=O)OC(C)(C)C)C(=O)N[C@H](C)C(=O)OC)cc3OCc3ccccc3)cccc12)NC(=O)OCc1ccccc1 :: > 100 µM
NCCCC[C@H](NC(=O)[C@@H](N)Cc1ccc(OCc2ccccc2)cc1)C(=O)N[C@@H](Cc1c[nH]c2ccccc12)C(=O)NCc1ccccc1 (H-Tyr(Bn)-Lys-Trp-NHBn) :: > 100 µM
C[C@H](NC(=O)[C@H](Cc1ccc(OCc2ccccc2)cc1)NC(=O)OC(C)(C)C)C(=O)N[C@@H](Cc1c[nH]c2ccccc12)C(=O)O (Boc-Tyr(Bn)-Ala-Trp-OH) :: > 100 µM
COC(=O)[C@@H]1Cc2c[nH]c3c(cccc23)-c2ccc(cc2OCc2ccccc2)C[C@H](NC(=O)OC(C)(C)C)C(=O)N[C@@H](CC(C)C)C(=O)N1 :: > 100 µM
CCOC(=O)[C@H](Cc1c[nH]c2c(Br)cccc12)NC(=O)[C@H](CC(C)C)NC(=O)[C@H](Cc1ccc(OCc2ccccc2)c(I)c1)NC(=O)OC(C)(C)C :: > 100 µM
CC(C)(C)OC(=O)N[C@@H](Cc1ccc(OCc2ccccc2)cc1)C(=O)NCC(=O)N[C@@H](Cc1c[nH]c2ccccc12)C(=O)O (Boc-Tyr(Bn)-Gly-Trp-OH) :: > 100 µM
C[C@H](NC(=O)[C@H](Cc1ccc(OCc2ccccc2)cc1)NC(=O)OC(C)(C)C)C(=O)N[C@@H](Cc1c[nH]c2ccccc12)C(=O)NCc1ccccc1 (Boc-Tyr(Bn)-Ala-Trp-NHBn) :: 55.4 µM
